This collection of values is drawn from PubChem BioAssay (NCI).

test: NCI Yeast Anticancer Drug Screen. Data for the sgs1 mgt1 strain (AID 161);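 further: 0% = growth of cultures given vehicle only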; details: S. cerevisiae sgs1 mgt1 strain, at 50.0 µM (retest, dose inferred, filed as 5.0), active compounds read high
This is part of a sample that, as a whole, favours compounds with a hit. Of some 79,000 tested, about 15% had one in any assay.

{"columns": ["compound", "measurement-unit", "growth inhibition"],
 "data": [
  ["Clc1nc2nc(Cl)c(Cl)n2nc1Cl", "%", -11],
  ["COc1nc(NC2OC(CO)C(O)C(O)C2O)c(Cl)c(=O)n1C (configuration not stated)", "%", -2],
  ["CC(C)=CCC(O)C1=CC(=O)c2c(O)ccc(O)c2C1=O (configuration not stated)", "%", 92],
  ["CCOC(CN=c1nc(N(C)C)ss1)OCC", "%", -19],
  ["O=C1C(CN(Cc2ccccc2)Cc2ccccc2)CCCC1CN(Cc1ccccc1)Cc1ccccc1 (configuration not stated)", "%", 46],
  ["OCC1OC(Sc2ncc[nH]2)C(O)C(O)C1O (configuration not stated)", "%", -11],
  ["CCCCCCCN", "%", 91],
  ["CCC(C)[P+](c1ccccc1)(c1ccccc1)c1ccccc1 (configuration not stated)", "%", 23],
  ["CCN(CC)CCC(=O)/C=C/c1ccccc1", "%", 100],
  ["O=C1c2ccccc2-n2c1nc1ccccc1c2=O", "%", 39],
  ["O=C(O)C1(Cc2ccccc2)Cc2cc3c(cc2C1)CCC3", "%", 0],
  ["CCN(CC)c1ccc(C(=C2C=CC(=[N+](CC)CC)C=C2)c2ccc(N(CC)CC)cc2)cc1", "%", 92]
]}

* * *

Assay: NCI Yeast Anticancer Drug Screen. Data for the sgs1 mgt1 strain (AID 161);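 further: 0% = growth of cultures given vehicle only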
Conditions: S. cerevisiae sgs1 mgt1 strain, at 5.0 µM (retest, dose inferred, filed as 0.5)
Protocol: Growth inhibition of yeast strains with defined genetic alterations is measured as a screen for potential anti-cancer activity. Selected strains with alterations in DNA damage repair or cell cycle control were exposed to compounds and growth inhibition was measured relative to vehicle treated controls. The strain used in this assay is sgs1 mgt1
This is part of a sample that, as a whole, favours compounds with a hit. Of some 79,000 tested, about 15% had one in any assay. Active and inactive are the calls of the source. No stated cut-off is given here; in the data, active means growth inhibition above about 70%; inactive means the rest.
Labels: T = active, F = inactive

{"columns": ["compound", "class-label"],
 "data": [
  ["CC(C)(C)OC(=O)NOc1ccc([N+](=O)[O-])cc1[N+](=O)[O-]", "F"],
  ["Cc1ccc(C(C)C)c2c1CN(CCN1COc3c(C(C)C)ccc(C)c3C1)CO2", "F"],
  ["CN(C)c1ccc(/C=C/c2ccc3ccccc3[n+]2C)cc1", "F"],
  ["COc1cccc2c1C(=O)c1c(O)c3c(c(O)c1C2=O)C[C@@](O)(C(C)=O)C[C@@H]3OC1CC(N)C(O)C(C)O1 (stereo not given in full)", "F"],
  ["CCN1/C(=C/C=C/C=C/c2sc3ccccc3[n+]2CC)Sc2ccccc21", "T"],
  ["Cc1nnc(S(=O)(=O)c2ccc(N=Nc3c(N)nc(N)nc3N)cc2)s1", "F"],
  ["COc1ccc2[nH]c3c(C)c4ccncc4c(C)c3c2c1", "F"],
  ["O=C(CC1=Nc2nnc(CCCCCCCc3nnc4n3C(=O)C(CC(=O)c3ccc5ccccc5c3)=N4)n2C1=O)c1ccc2ccccc2c1", "F"],
  ["O=C(O)CSCc1ccc(Cl)cc1", "F"],
  ["CC(c1ccccc1)c1ccc(O)cc1 (stereo not given)", "F"]
]}

* * *

experiment: NCI Yeast Anticancer Drug Screen. Data for the cln2 rad14 strain (AID 165);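 further: 0% = growth equal to vehicle treated cultures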; conditions: S. cerevisiae cln2 rad14 strain, at 5.0 µM (retest, dose inferred, filed as 0.5), active compounds read high
Compounds without any hit were thinned out: in the full panel of roughly 79,000, 15% have a hit.
quantity-name: growth inhibition (%)

{"columns": ["compound", "number"],
 "data": [
  ["COc1cc(C2C(C#N)=C(C)Nc3nc(N)nc(N)c32)cc(OC)c1OC (stereo not given)", -6],
  ["COc1ccc(-c2c(C#N)c(-c3ccc(C)cc3)n(NS(=O)(=O)c3ccccc3)c(=O)c2C#N)cc1", 49],
  ["CC(=O)OC(OC(C)=O)c1c2ccccc2cc2ccccc12", 14],
  ["CC[N+](CC)=c1ccc2nc3c(cc(N)c4ccccc43)oc-2c1", -14],
  ["O=C(O)c1c2ccccc2nc2[nH]c(=O)[nH]c(=O)c12", 0]
]}

* * *

assay: NCI Yeast Anticancer Drug Screen. Data for the rad50 strain (AID 155);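 further: 0% = growth of vehicle-only cultures of the same strain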; conditions: S. cerevisiae rad50 strain growth inhibition; at 50.0 µM (retest, dose inferred, filed as 5.0); active compounds read high
About 79,000 compounds went through this panel and 15% of them were active in at least one assay; those are over-represented in the sample as a whole.
# cutoff 40% applies to growth inhibition; >= gives class 1, < gives class 0

{"columns": ["molecule", "class-label"],
 "data": [
  ["ON=C(Cc1ccccc1)Cc1ccccc1", "class 0"],
  ["Clc1nc2nc(Cl)c(Cl)n2nc1Cl", "class 0"],
  ["Cc1cc(NS(=O)(=O)c2ccc(N=Nc3cc(N=Nc4ccc(S(=O)(=O)Nc5cc(C)nc(C)n5)cc4)c4c(NC(=O)C(Cl)Cl)cccc4c3OC(=O)C(Cl)Cl)cc2)nc(C)n1 (tested in a mixture with another compound)", "class 1"],
  ["c1ccc2nc3c(ccc4ccccc43)cc2c1", "class 0"],
  ["N=C1N(c2ccccc2)C(=S)C(=Nc2ccccc2)N1c1ccccc1", "class 1"],
  ["O=C1c2ccccc2C(=O)N1CC[P+](c1ccccc1)(c1ccccc1)c1ccccc1", "class 1"],
  ["COc1cccc2c1C(=O)c1c(O)c3c(c(O)c1C2=O)C[C@@](O)(C(C)=O)C[C@@H]3OC1CC(N(C)C)C(O)C(C)O1 (some centres undefined)", "class 1"],
  ["COc1cc2c(c(OC)c1OC)-c1ccc(SC)c(=O)cc1C(NC(=O)c1ccccc1)CC2 (centres undefined)", "class 1"]
]}

* * *

assay: NCI Yeast Anticancer Drug Screen. Data for the sgs1 mgt1 strain (AID 161);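 further: 0% = growth of cultures given vehicle only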; details: S. cerevisiae sgs1 mgt1 strain, at 50.0 µM, active compounds read high
The panel holds about 79,000 compounds, 15% with a hit somewhere; the sample as a whole holds those more often.
# cutoff 60% applies to growth inhibition; >= gives 1.0, < gives 0.0

{"columns": ["molecule", "class-label"],
 "data": [
  ["CN(CCN1C(=O)c2cccc3cccc(c23)C1=O)CCN1C(=O)c2cccc3cccc(c23)C1=O", 1.0],
  ["CCOC(=O)C(CN)(c1ccccc1)c1ccccc1", 0.0],
  ["COc1nc(NC2OC(CO)C(O)C(O)C2O)c(Cl)c(=O)n1C (stereo unspecified)", 1.0],
  ["CCCCCCCCCCCCCCCCCCOCC(O)CO (stereo unspecified)", 1.0],
  ["C=CC(=O)OCCOc1ccc(Cl)cc1Cl", 1.0],
  ["Cc1ccc(C23C=CC(c4ccccc4)(C2)C2C(=O)OC(=O)C23)cc1 (stereo unspecified)", 1.0]
]}

* * *

We begin with a simple list: items and their reported growth inhibition.
experiment: NCI Yeast Anticancer Drug Screen. Data for the bub3 strain (AID 167); conditions: S. cerevisiae bub3 mutant strain, at 50.0 µM, active compounds read high
This is part of a sample that, as a whole, favours compounds with a hit. Of some 79,000 tested, about 15% had one in any assay.

{"columns": ["record-smiles", "measurement-unit", "growth inhibition"],
 "data": [
  ["O=C(O)CSCc1ccc(Cl)cc1", "%", 6.1],
  ["NC(=O)c1cc(Br)cc(Br)c1O", "%", 89.8],
  ["O=C1C=CC(=O)C(c2ccc3ccccc3c2)=C1", "%", 99],
  ["CCOC(CN=c1nc(N(C)C)ss1)OCC", "%", 43.4],
  ["NS(=O)(=O)c1ccc(Nc2c3ccccc3nc3c(C(=O)N4CCN(CCO)CC4)cccc23)cc1", "%", 23.9],
  ["Nc1nc(Cl)cc(NCCCCCCCCCCNc2cc(Cl)nc(N)n2)n1", "%", 18.8],
  ["Cc1ccc(S(=O)(=O)N/N=C2/C(=O)c3cccc4cccc2c34)cc1", "%", 0.25],
  ["CCCC1=CCCC1", "%", 96.8],
  ["Cc1nc(N=C(N)N)nc2ccc3ccccc3c12", "%", 63.9],
  ["c1ccc2nc3c(ccc4ccccc43)cc2c1", "%", 84],
  ["O=[N+]([O-])C(/C=C(\\Cl)[N+](=O)[O-])=C(Nc1ccccc1)Nc1ccccc1", "%", 85.8],
  ["COc1ccc(/C=C/C(=O)CCN2CCN(CCC(=O)/C=C/c3ccc(OC)cc3)CC2)cc1", "%", 87]
]}

* * *

assay: NCI Yeast Anticancer Drug Screen. Data for the mec2-1 strain (AID 157); details: S. cerevisiae mec2-1 strain, at 5.0 µM (retest, dose inferred, filed as 0.5), active compounds read high
The panel holds about 79,000 compounds, 15% with a hit somewhere; the sample as a whole holds those more often.
quantity-name: growth inhibition (%)

{"columns": ["compound", "quantity-name", "number"],
 "data": [
  ["COc1ccc2nc3cc(Cl)ccc3c(NCCCNCc3cc(OC)c(OC)c(OC)c3)c2c1", "growth inhibition", -3],
  ["O=C(O)c1ccc(Nc2cnc3ccc(C(F)(F)F)cc3n2)cc1", "growth inhibition", 4],
  ["CCCCCCCCCCCCN", "growth inhibition", 65],
  ["O=C1/C(=C\\c2ccc([N+](=O)[O-])cc2)Sc2scc(-c3ccc(O)c(O)c3)[n+]21", "growth inhibition", -10],
  ["CCN(C(=O)C(Cl)Cl)C(Cc1ccccc1)c1ccccc1 (stereo unspecified)", "growth inhibition", -1],
  ["COc1cccc(NC(=S)N2CCCCC2)c1", "growth inhibition", -51],
  ["C/C(N=NC(=S)N1CCCCCC1)=C1\\C=CC=CN1O", "growth inhibition", 12],
  ["COC(=O)c1nnn(-c2ccc(S(N)(=O)=O)cc2)c1N", "growth inhibition", -4],
  ["O=C(Nc1ccc(Cl)cc1)c1ccccc1O", "growth inhibition", 2],
  ["CCO/C=C1\\SC(=S)N(c2cccc(O)c2)C1=O", "growth inhibition", 74],
  ["CS(=O)(=O)OC1CC(n2ccc(=O)[nH]c2=O)OC1COC(c1ccccc1)(c1ccccc1)c1ccccc1 (stereo unspecified)", "growth inhibition", -4]
]}
